Origin of measurements: patent US20240383958A1

- TESTED ON: T1, apelin receptor (AGTRL1) on CHO-K1 cells (UniProt P35414 1-380, limits assumed)
- T1 sequence (looked up): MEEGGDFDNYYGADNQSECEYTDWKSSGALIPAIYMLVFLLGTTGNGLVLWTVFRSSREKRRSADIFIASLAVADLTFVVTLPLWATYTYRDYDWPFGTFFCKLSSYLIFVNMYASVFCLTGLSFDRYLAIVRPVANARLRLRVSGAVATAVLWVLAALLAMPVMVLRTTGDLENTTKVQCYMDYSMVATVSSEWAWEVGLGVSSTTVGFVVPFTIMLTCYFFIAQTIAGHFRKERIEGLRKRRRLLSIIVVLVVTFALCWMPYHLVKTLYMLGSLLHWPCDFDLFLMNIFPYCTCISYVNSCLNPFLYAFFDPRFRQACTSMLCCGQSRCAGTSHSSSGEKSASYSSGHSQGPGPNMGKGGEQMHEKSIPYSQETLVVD
- ASSAY NAME: cell-based or functional assay
QUANTITY MEASURED: beta-Arrestin EC50 (nM) Exp. 1
Answer format: numeric, nM implied, no suffix.

Lookup result for ELA-L (Fc fusion) DKTHTSPPSPAPEAAGGPSVFLFPPKPKDTLMISRTPEVTCVVVDVSHEDPEVKFNWYVDGVEVHNAKTKPREEQYNSTYRVVSVLTVLHQDWLNGKEYKCKVSNKALPAPIEKTISKAKGQPREPQVYTLPPSREEMTKNQVNLTCLVKGFYPSDIAVEWESNGQPENNYKTTPPVLDSDGSFFLNSTLTVDKSRWQQGNVFSCSVMHEALHNHYTQKSLSLSPGKGGGGSGGGGSGGGGSKLRKHNCATRRCMPLHSRVPFP ; measured beta-Arrestin EC50 (nM) Exp. 1: 7.54
